# Test system: A498
# Procedure text: In vitro inhibition, CellTiter-Glo (CTG) assay, 72 hr exposure
# Format: cell-based
# Applied conditions: Homo sapiens, A498, 72 hr
Parameter: IC50

Q) Fill blank: measured IC50 of the molecule CC(C)OC(=O)[C@H](C)NP(=O)(OC[C@H]1S[C@@H](n2ccc(N)nc2=O)[C@@H](O)[C@@H]1O)Oc1ccccc1 (single isomer, unassigned) [Compound 101b (diastereoisomer 1)] is ____.
A) 10 to 100 µM

---

# Test system: live leukemic cells of AML patient samples (bone marrow or peripheral blood)
# Procedure text: Ex-vivo effect on AML patient samples, depletion of live leukemic cells by flow cytometry
# Assay type: cell-based, human
# Applied conditions: Homo sapiens, 48 h, plates incubated for 48 hours
pEC50: −log10 of the molar value.
Parameter: pEC50

Example compounds with recorded pEC50:
CC(C)OC(=O)[C@H](C)NP(=O)(OC[C@H]1S[C@@H](n2ccc(N)nc2=O)[C@@H](O)[C@@H]1O)Oc1ccccc1 (single isomer, unassigned) [drawing 47]
≤ 4.70
CC(C)(C)SSCCOP(=O)(NCc1ccccc1)OC[C@H]1S[C@@H](n2ccc(N)nc2=O)[C@@H](O)[C@@H]1O (single isomer, unassigned) [drawing 57]
≤ 4.70
Nc1ccn([C@@H]2S[C@H](COP(=O)(O)NCc3ccccc3)[C@@H](O)[C@@H]2O)c(=O)n1 [drawing 49]
5.00 to 6.00

Q) Fill blank: measured pEC50 of the compound COC(=O)COP(=O)(N[C@@H](CC(C)C)C(=O)OC)OC[C@H]1S[C@@H](n2ccc(N)nc2=O)[C@@H](O)[C@@H]1O (single isomer, unassigned) [drawing 54] is ____.
A) 5.00 to 6.00

Q) // query: CC(=O)OC[C@H](C)NP1(=O)OC[C@H]2S[C@@H](n3ccc(N)nc3=O)[C@@H](O)C2O1 (stereo partly drawn)
A) ≤ 4.70

Q) // query: CCOC(=O)COP(=O)(N[C@@H](CC(C)C)C(=O)OCC)OC[C@H]1S[C@@H](n2ccc(N)nc2=O)[C@@H](O)[C@@H]1O (single isomer, unassigned) [drawing 51]
A) 4.70 to 5.00

---

# Tested on: live leukemic cells of AML patient samples (bone marrow or peripheral blood)
# Procedure text: Ex-vivo effect on AML patient samples, depletion of live leukemic cells by flow cytometry
# Format: cell-based, human
# Applied conditions: Homo sapiens, 48 h, plates incubated for 48 hours
Recorded Emax by entry

CC(=O)OC[C@H](C)NP1(=O)OC[C@H]2S[C@@H](n3ccc(N)nc3=O)[C@@H](O)C2O1 (stereo partly drawn)
> 20%
Nc1ccn([C@@H]2S[C@H](COP(=O)(O)NCc3ccccc3)[C@@H](O)[C@@H]2O)c(=O)n1 [drawing 49]
10 to 20%
CC(C)(C)SSCCOP(=O)(NCc1ccccc1)OC[C@H]1S[C@@H](n2ccc(N)nc2=O)[C@@H](O)[C@@H]1O (single isomer, unassigned) [drawing 57]
10 to 20%

Q) Fill blank: measured Emax of the compound COC(=O)COP(=O)(N[C@@H](CC(C)C)C(=O)OC)OC[C@H]1S[C@@H](n2ccc(N)nc2=O)[C@@H](O)[C@@H]1O (single isomer, unassigned) [drawing 54] is ____.
A) 0 to 10%

Q) // query: CCOC(=O)COP(=O)(N[C@@H](CC(C)C)C(=O)OCC)OC[C@H]1S[C@@H](n2ccc(N)nc2=O)[C@@H](O)[C@@H]1O (single isomer, unassigned) [drawing 51]
A) 0 to 10%

Q) // query: Nc1ccn([C@@H]2S[C@H](COP(=O)(NCc3ccccc3)OCc3ccc([N+](=O)[O-])o3)[C@@H](O)[C@@H]2O)c(=O)n1 (single isomer, unassigned) [drawing 52]
A) 0 to 10%
